Measured values drawn from patent US20240335543A1 for this set.

assay: LNP hydrodynamic diameter and polydispersity index by dynamic light scattering (DLS); type: physicochemical; details: LNP with 47.5% Ionizable Lipid: 40% cholesterol: 2.5% PEG-2000 DMG: 10% DPSC, N/P 4-8
List of Mean PDI values.
Respond numerically, and do not add a unit to the figure.

Field: example entries. Status: answers known.
- CCCCCCC(CC)OC(=O)CCCCCCCCN(CCCCCCCCC(=O)OC(CC)CCCCCC)CCCNC(=O)c1cc(C(=O)NCCCN(CCCCCCCCC(=O)OC(CC)CCCCCC)CCCCCCCCC(=O)OC(CC)CCCCCC)cc(C(=O)OCCN(C)C)c1 (centres unmarked): 0.10
- CCCCCC(CCCCC)CCOC(=O)CCCCCCCOC(=O)c1cc(C(=O)OCCCCCCCC(=O)OCCC(CCCCC)CCCCC)cc(C(=O)OCCCCN(C)C)c1: 0.11

# return recorded Mean PDI for entry CCCCCCC(CC)OC(=O)CCCCCCCCN(CCCCCCCCC(=O)OC(CC)CCCCCC)CCCNC(=O)c1cccc(C(=O)NCCCN(CCCCCCCCC(=O)OC(CC)CCCCCC)CCCCCCCCC(=O)OC(CC)CCCCCC)c1 (centres unmarked)
0.16

Retrieve Mean PDI measured for CCCCCC(CCCCC)CCOC(=O)CCCCCCCOC(=O)c1cc(C(=O)OCCCCCCCC(=O)OCCC(CCCCC)CCCCC)cc(C(=O)OCCCN(C)C)c1 and print it.
0.09

Return Mean PDI (reported value) for this compound: CCCCCCC(CC)OC(=O)CCCCCCCCN(CCCCCCCCC(=O)OC(CC)CCCCCC)CCCNC(=O)c1ccc(C(=O)NCCCN(CCCCCCCCC(=O)OC(CC)CCCCCC)CCCCCCCCC(=O)OC(CC)CCCCCC)cc1 (centres unmarked)
0.08

----------
test: LNP hydrodynamic diameter and polydispersity index by dynamic light scattering (DLS); assay type: physicochemical; conditions: LNP with 47.5% Ionizable Lipid: 40% cholesterol: 2.5% PEG-2000 DMG: 10% DPSC, N/P 4-8
reported_endpoint: Mean Diameter (nm)
The reply should contain only the number, in nm.

Please review the following examples before continuing.
- CCCCCCC(CC)OC(=O)CCCCCCCCN(CCCCCCCCC(=O)OC(CC)CCCCCC)CCCNC(=O)c1cc(C(=O)NCCCN(CCCCCCCCC(=O)OC(CC)CCCCCC)CCCCCCCCC(=O)OC(CC)CCCCCC)cc(C(=O)OCCN(C)C)c1 (centres unmarked) [Compound 7-5]: 124.6
- CCCCCCC(CC)OC(=O)CCCCCCCCN(CCCCCCCCC(=O)OC(CC)CCCCCC)CCCNC(=O)c1cccc(C(=O)NCCCN(CCCCCCCCC(=O)OC(CC)CCCCCC)CCCCCCCCC(=O)OC(CC)CCCCCC)c1 (centres unmarked) [Compound 7-1]: 82.4
- CCCCCC(CCCCC)CCOC(=O)CCCCCCCOC(=O)c1cc(C(=O)OCCCCCCCC(=O)OCCC(CCCCC)CCCCC)cc(C(=O)OCCCCN(C)C)c1 [Compound 7-9]: 90.8
- CCCCCCC(CC)OC(=O)CCCCCCCCN(CCCCCCCCC(=O)OC(CC)CCCCCC)CCCNC(=O)c1ccc(C(=O)NCCCN(CCCCCCCCC(=O)OC(CC)CCCCCC)CCCCCCCCC(=O)OC(CC)CCCCCC)cc1 (centres unmarked) [Compound 7-2]: 110.0

Now let's try a different one.
Identify measured Mean Diameter (nm) associated with CCCCCC(CCCCC)CCOC(=O)CCCCCCCOC(=O)c1cc(C(=O)OCCCCCCCC(=O)OCCC(CCCCC)CCCCC)cc(C(=O)OCCCN(C)C)c1 [Compound 7-7]
86.5

----------
assay: RNA encapsulation efficiency of LNPs by Ribogreen assay; format: physicochemical; settings: LNP with 47.5% Ionizable Lipid: 40% cholesterol: 2.5% PEG-2000 DMG: 10% DPSC, N/P 4-8
reported_endpoint: Mean Encapsulation Efficiency (%)
Kindly provide the numeric value in % only, without the unit symbol.

• CCCCCC(CCCCC)CCOC(=O)CCCCCCCOC(=O)c1cc(C(=O)OCCCCCCCC(=O)OCCC(CCCCC)CCCCC)cc(C(=O)OCCCN(C)C)c1 [Compound 7-7] = 75.3
• CCCCCC(CCCCC)CCOC(=O)CCCCCCCOC(=O)c1cc(C(=O)OCCCCCCCC(=O)OCCC(CCCCC)CCCCC)cc(C(=O)OCCCCN(C)C)c1 [Compound 7-9] = 84.9
• CCCCCCC(CC)OC(=O)CCCCCCCCN(CCCCCCCCC(=O)OC(CC)CCCCCC)CCCNC(=O)c1cccc(C(=O)NCCCN(CCCCCCCCC(=O)OC(CC)CCCCCC)CCCCCCCCC(=O)OC(CC)CCCCCC)c1 (centres unmarked) [Compound 7-1] = 76.7
• CCCCCCC(CC)OC(=O)CCCCCCCCN(CCCCCCCCC(=O)OC(CC)CCCCCC)CCCNC(=O)c1cc(C(=O)NCCCN(CCCCCCCCC(=O)OC(CC)CCCCCC)CCCCCCCCC(=O)OC(CC)CCCCCC)cc(C(=O)OCCN(C)C)c1 (centres unmarked) [Compound 7-5] = 94.7

Now for the compound whose Mean Encapsulation Efficiency (%) we want.
Please list Mean Encapsulation Efficiency (%) recorded for the compound CCCCCCC(CC)OC(=O)CCCCCCCCN(CCCCCCCCC(=O)OC(CC)CCCCCC)CCCNC(=O)c1ccc(C(=O)NCCCN(CCCCCCCCC(=O)OC(CC)CCCCCC)CCCCCCCCC(=O)OC(CC)CCCCCC)cc1 (centres unmarked) [Compound 7-2]
58.4
